FYI, the data here is from patent US20160031999A1.

- Assayed target: T1, human IL-11Rα (form used in the assay not stated) (human, UniProt Q14626 23-363, limits assumed)
- T1 construct: also called hIL-11R; hIL-11Rα
- T1 sequence: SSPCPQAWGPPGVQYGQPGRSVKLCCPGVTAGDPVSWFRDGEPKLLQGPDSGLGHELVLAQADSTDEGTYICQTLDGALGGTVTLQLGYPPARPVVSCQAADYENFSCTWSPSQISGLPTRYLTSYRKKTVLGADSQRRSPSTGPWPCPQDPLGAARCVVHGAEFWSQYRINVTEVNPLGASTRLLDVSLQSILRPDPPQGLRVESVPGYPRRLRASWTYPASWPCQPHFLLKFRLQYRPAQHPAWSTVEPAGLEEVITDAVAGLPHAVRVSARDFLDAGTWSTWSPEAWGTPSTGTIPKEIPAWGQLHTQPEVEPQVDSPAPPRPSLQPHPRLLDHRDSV
- Measurement notes: Biacore, pH 8.5, 37°C
Reported Kd values are given for each entry in this list.
Field: numeric (nM). Do not append units.

Record excerpt, results attached:
binder="hu8E2-TS-4 (antibody, V domains shown) VH: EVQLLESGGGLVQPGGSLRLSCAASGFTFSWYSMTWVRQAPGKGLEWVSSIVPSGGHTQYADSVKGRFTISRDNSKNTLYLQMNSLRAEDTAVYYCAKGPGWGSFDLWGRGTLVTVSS VL: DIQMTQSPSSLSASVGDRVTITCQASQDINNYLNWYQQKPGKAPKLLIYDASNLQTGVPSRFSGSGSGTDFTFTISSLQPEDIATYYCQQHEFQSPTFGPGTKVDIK" recorded_number=0.295
binder="hu8E2-TS-49 (antibody, V domains shown) VH: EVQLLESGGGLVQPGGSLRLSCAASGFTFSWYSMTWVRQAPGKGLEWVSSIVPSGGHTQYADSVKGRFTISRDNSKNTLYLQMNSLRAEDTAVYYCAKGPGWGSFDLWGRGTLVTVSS VL: DIQMTQSPSSLSASVGDRVTITCQASQDINNYLNWYQQKPGKAPKLLIYDASNLQTGVPSRFSGSGSGTDFTFTISSLQPEDIATYYCQQYESQAPEFGPGTKVDIK" recorded_number=1.5

Fill in: Kd of hu8E2-TS-306 (antibody, V domains shown) VH: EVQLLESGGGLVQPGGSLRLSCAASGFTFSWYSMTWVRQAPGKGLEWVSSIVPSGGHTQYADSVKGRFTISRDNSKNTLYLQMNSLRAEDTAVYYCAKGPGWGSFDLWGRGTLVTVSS VL: DIQMTQSPSSLSASVGDRVTITCQASQDVDKYVEWYQQKPGKAPKLLIYDASNLQTGVPSRFSGSGSGTDFTFTISSLQPEDIATYYCQQYDNLSPTFGPGTKVDIK is ___ 1.07
